biological target: huCDH19(44-772) with Flag tag (construct A, Hu EC1-5) (human, UniProt Q9H159 44-772); assay: flow cytometry, transfected 293T cells, 2 mM CaCl2;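 further: binding of Alexa647-labelled anti-CDH19 antibodies to cells expressing human/chicken CDH19 chimeras, read as cell-bound fluorescence, with mock-transfected cells as controls, n.d. meaning not determined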

Binder	binding result
hu anti-<huCDH19> 23A10.3 (1-474)(L92Q) VH::huIgG1z + 23A10.3 (1-231)(C42S) VL::huLLC-C2 (Ab ID 14077) (antibody, V domains shown, Engineered variant of 23A10; the entries already carry the changes; Bin 4) VH: QVQLVESGGGVVQPGRSLRLSCAASGFTFSRYGIHWVRQAPGKGLEWVAVIWYDGSNKYYADSVKGRFTISRDNSKNTLYLQMNSLRAEDSAVYYCARRAGIPGTTGYYYGMDVWGQGTTVTVSS VL: SYELTQPPSVSVSPGQTASITCSGDRLGEKYVSWYQQKPGQSPILVIYQDNKWPSGIPERFSGSNSGNTATLTISGTQAMDEADYYCQAWDSSTVVFGGGTKLTVLG	binds
anti-CDH19 antibody 2G6 (Ab ID 13588) (antibody, human IgG1, lambda, V domains shown, Bin 4) VH: QVQLVESGGGVVQPGRSLRLSCAASGFTFSSYGMHWVRQAPGKGLEWVAFIWYDGSNKYYADSVKDRFTISRDNSKNTLYLQMKSLRAEDTAVYYCARRAGIIGTIGYYYGMDVWGQGTTVTVSS VL: SYELTQPPSVSVSPGQTASITCSGDRLGEKYTCWYQQRPGQSPLLVIYQDTKRPSGIPERFSGSNSGNTATLTISGTQAMDEADYYCQAWDSSTVVFGGGTKLTVLG	binds
hu anti-<huCDH19> 4A9 (Ab ID 13589) (antibody, human IgG1, lambda, V domains shown, huIgG1z / huLLC-C1; Bin 1) VH: QVQLQESGPGLVKPSETLSLTCTVSGGSISGYYWSWIRQPPGKGLEWFAYFSYSGSTNYNPSLKSRVTLSVDTSKNQFSLKLSSVTAADTAVYYCARNWAFHFDFWGQGTLVTVSS VL: QSVLTQPPSVSGAPGQRVTISCTGSSSNIGTGYAVHWYQQFPGTAPKLLIYGNNNRPSGVPDRFSGSKSGTSASLAITGLQAEDEADYYCQSYDSRLSGWVFGGGTKLTVLG	binds
